The measurements presented in this section are drawn from ChEMBL document CHEMBL4732167.

Test system: Aspergillus clavatus
Assay: Antifungal activity against Aspergillus clavatus MTCC 1323 assessed as fungal growth inhibition
Assay type: functional
Assay Endpoint: MFC

CC(=O)c1c(C)nc(SCC(=O)Nc2ccc(OCc3ccccc3)cc2)n1-c1ccc(F)cc1 : > 1000 µg/mL
CC(=O)c1c(C)nc(SCC(=O)Nc2ccc(OCc3ccccc3)cc2)n1-c1ccccc1 : 1000 µg/mL
COc1ccc(-n2c(SCC(=O)Nc3ccc(OCc4ccc(F)cc4)cc3)nc(C)c2C(C)=O)cc1 : 500 µg/mL
CC(=O)c1c(C)nc(SCC(=O)Nc2ccc(OC(=O)c3cccs3)cc2)n1-c1ccc(F)cc1 : 250 µg/mL
COc1ccc(COc2ccc(NC(=O)CSc3nc(C)c(C(C)=O)n3-c3ccc(Br)cc3)cc2)cc1 : 1000 µg/mL
CC(=O)c1c(C)nc(SCC(=O)Nc2ccc(OC(=O)c3ccco3)cc2)n1-c1ccc(Br)cc1 : 500 µg/mL
CC(=O)c1c(C)nc(SCC(=O)Nc2ccc(OC(=O)c3ccc(Cl)cc3)cc2)n1-c1ccc(Cl)cc1 : > 1000 µg/mL
COC1=CC(=O)C[C@@H](C)[C@]12Oc1c(Cl)c(OC)cc(OC)c1C2=O : 100 µg/mL

Ask | Look at this molecule and give its reported MFC. CC(=O)c1c(C)nc(SCC(=O)Nc2ccc(OCc3ccc(Cl)cc3)cc2)n1-c1ccc(Cl)cc1
Reply | > 1000 µg/mL

Ask | Look at this molecule and give its reported MFC. COc1ccc(-n2c(SCC(=O)Nc3ccc(OC(=O)c4cccs4)cc3)nc(C)c2C(C)=O)cc1
Reply | 500 µg/mL

Ask | Look at this molecule and give its reported MFC. CC(=O)c1c(C)nc(SCC(=O)Nc2ccc(OC(=O)c3ccc(Cl)cc3)cc2)n1-c1ccc(Br)cc1
Reply | 500 µg/mL

====

Test system: Mycobacterium tuberculosis
Assay: Antibacterial activity against Mycobacterium tuberculosis H37Rv assessed as bacterial growth inhibition
Format: functional
MIC strictly under 60 µg/mL means rule met; at 60 µg/mL or over means rule not met.

COc1ccc(-n2c(SCC(=O)Nc3ccc(OC(=O)c4ccco4)cc3)nc(C)c2C(C)=O)cc1 : rule not met

Ask | API: query returns whether the molecule falls strictly under 60 µg/mL in MIC. Query: CC(=O)c1c(C)nc(SCC(=O)Nc2ccc(OCc3ccccc3)cc2)n1-c1ccccc1
Reply | rule not met

Ask | API: query returns whether the molecule falls strictly under 60 µg/mL in MIC. Query: CC(=O)c1c(C)nc(SCC(=O)Nc2ccc(OC(=O)c3ccco3)cc2)n1-c1ccc(Br)cc1
Reply | rule met

Ask | API: query returns whether the molecule falls strictly under 60 µg/mL in MIC. Query: CC(=O)c1c(C)nc(SCC(=O)Nc2ccc(OC(=O)c3ccco3)cc2)n1-c1ccc(F)cc1
Reply | rule not met

Ask | API: query returns whether the molecule falls strictly under 60 µg/mL in MIC. Query: CC(=O)c1c(C)nc(SCC(=O)Nc2ccc(OC(=O)c3ccc(Cl)cc3)cc2)n1-c1ccc(Br)cc1
Reply | rule met

Ask | API: query returns whether the molecule falls strictly under 60 µg/mL in MIC. Query: NNC(=O)c1ccncc1 [ISONIAZID]
Reply | rule met

Ask | API: query returns whether the molecule falls strictly under 60 µg/mL in MIC. Query: CC(=O)c1c(C)nc(SCC(=O)Nc2ccc(OCc3ccc(F)cc3)cc2)n1-c1ccc(Cl)cc1
Reply | rule not met

Ask | API: query returns whether the molecule falls strictly under 60 µg/mL in MIC. Query: CC(=O)c1c(C)nc(SCC(=O)Nc2ccc(OC(=O)c3cccs3)cc2)n1-c1ccc(F)cc1
Reply | rule not met

Ask | API: query returns whether the molecule falls strictly under 60 µg/mL in MIC. Query: COc1ccc(COc2ccc(NC(=O)CSc3nc(C)c(C(C)=O)n3-c3ccc(Br)cc3)cc2)cc1
Reply | rule not met

====

Listed here are compounds together with their documented Activity.
Assay: Antioxidant activity assessed as hydrogen peroxide radical scavenging activity at 100 ug/ml (reference value: 23.6 to 43.1 %)
Format: functional
Settings: dose 100.0 µg/ml
Entry rule: numbers only, all in %.

Use the examples below as a reference point.
CC(=O)c1c(C)nc(SCC(=O)Nc2ccc(OC(=O)c3ccco3)cc2)n1-c1ccc(Br)cc1 : 86.5
CC(=O)c1c(C)nc(SCC(=O)Nc2ccc(OCc3ccccc3)cc2)n1-c1ccc(F)cc1 : 91.8
COc1ccc(-n2c(SCC(=O)Nc3ccc(OCc4ccc(F)cc4)cc3)nc(C)c2C(C)=O)cc1 : 84.3
CC(=O)c1c(C)nc(SCC(=O)Nc2ccc(OCc3ccc(Cl)cc3)cc2)n1-c1ccc(Cl)cc1 : 89.7
CC(=O)c1c(C)nc(SCC(=O)Nc2ccc(OCc3ccccc3)cc2)n1-c1ccccc1 : 81.9
CC(=O)c1c(C)nc(SCC(=O)Nc2ccc(OCc3ccc(F)cc3)cc2)n1-c1ccc(Cl)cc1 : 88.1
COc1ccc(-n2c(SCC(=O)Nc3ccc(OC(=O)c4cccs4)cc3)nc(C)c2C(C)=O)cc1 : 82.3
CC(=O)c1c(C)nc(SCC(=O)Nc2ccc(OC(=O)c3cccs3)cc2)n1-c1ccc(F)cc1 : 79.6

Ask | Look at this compound and give its reported Activity. COc1ccc(COc2ccc(NC(=O)CSc3nc(C)c(C(C)=O)n3-c3ccc(Br)cc3)cc2)cc1
Reply | 84.3

====

Listed here are compounds together with their documented Activity.
Experiment: Antioxidant activity assessed as hydrogen peroxide radical scavenging activity at 25 ug/ml (reference value: 23.6 to 43.1 %)
Assay type: functional
Settings: dose 25.0 µg/ml
Entry rule: numbers only, all in %.

Use the examples below as a reference point.
O=C1O[C@H]([C@@H](O)CO)C(O)=C1O : 75.1
CC(=O)c1c(C)nc(SCC(=O)Nc2ccc(OCc3ccc(Cl)cc3)cc2)n1-c1ccccc1 : 42.6
COc1ccc(COc2ccc(NC(=O)CSc3nc(C)c(C(C)=O)n3-c3ccc(Br)cc3)cc2)cc1 : 47
CC(=O)c1c(C)nc(SCC(=O)Nc2ccc(OC(=O)c3ccco3)cc2)n1-c1ccc(F)cc1 : 55.9
CC(=O)c1c(C)nc(SCC(=O)Nc2ccc(OCc3ccccc3)cc2)n1-c1ccc(F)cc1 : 47.4

Ask | Look at this compound and give its reported Activity. COc1ccc(-n2c(SCC(=O)Nc3ccc(OCc4ccc(F)cc4)cc3)nc(C)c2C(C)=O)cc1
Reply | 54

Ask | Look at this compound and give its reported Activity. CC(=O)c1c(C)nc(SCC(=O)Nc2ccc(OCc3ccc(F)cc3)cc2)n1-c1ccc(F)cc1
Reply | 46.1

Ask | Look at this compound and give its reported Activity. COc1ccc(-n2c(SCC(=O)Nc3ccc(OC(=O)c4cccs4)cc3)nc(C)c2C(C)=O)cc1
Reply | 39.4

Ask | Look at this compound and give its reported Activity. CC(=O)c1c(C)nc(SCC(=O)Nc2ccc(OC(=O)c3ccc(Cl)cc3)cc2)n1-c1ccc(Br)cc1
Reply | 38.7

Ask | Look at this compound and give its reported Activity. CC(=O)c1c(C)nc(SCC(=O)Nc2ccc(OCc3ccccc3)cc2)n1-c1ccccc1
Reply | 43.8

Ask | Look at this compound and give its reported Activity. CC(=O)c1c(C)nc(SCC(=O)Nc2ccc(OCc3ccc(F)cc3)cc2)n1-c1ccc(Cl)cc1
Reply | 51

Ask | Look at this compound and give its reported Activity. CC(=O)c1c(C)nc(SCC(=O)Nc2ccc(OC(=O)c3ccc(Cl)cc3)cc2)n1-c1ccc(Cl)cc1
Reply | 50.8

Ask | Look at this compound and give its reported Activity. CC(=O)c1c(C)nc(SCC(=O)Nc2ccc(OC(=O)c3cccs3)cc2)n1-c1ccc(F)cc1
Reply | 48.6

Ask | Look at this compound and give its reported Activity. CC(=O)c1c(C)nc(SCC(=O)Nc2ccc(OCc3ccc(Cl)cc3)cc2)n1-c1ccc(Cl)cc1
Reply | 47.8

Ask | Look at this compound and give its reported Activity. CC(=O)c1c(C)nc(SCC(=O)Nc2ccc(OC(=O)c3ccco3)cc2)n1-c1ccc(Br)cc1
Reply | 51.7

Ask | Look at this compound and give its reported Activity. COc1ccc(-n2c(SCC(=O)Nc3ccc(OC(=O)c4ccco4)cc3)nc(C)c2C(C)=O)cc1
Reply | 59.3

====

Assay: Antioxidant activity assessed as DPPH radical scavenging activity at 100 ug/ml (reference value: 22 to 40.2 %)
Format: functional
Settings: dose 100.0 µg/ml
Assay Endpoint: Activity (%)
Entry rule: numbers only, all in %.

Use the examples below as a reference point.
CC(=O)c1c(C)nc(SCC(=O)Nc2ccc(OC(=O)c3cccs3)cc2)n1-c1ccc(F)cc1 : 89.6
CC(=O)c1c(C)nc(SCC(=O)Nc2ccc(OC(=O)c3ccco3)cc2)n1-c1ccc(Br)cc1 : 88.7
CC(=O)c1c(C)nc(SCC(=O)Nc2ccc(OCc3ccc(F)cc3)cc2)n1-c1ccc(F)cc1 : 89.4

Ask | Look at this compound and give its reported Activity. CC(=O)c1c(C)nc(SCC(=O)Nc2ccc(OC(=O)c3ccc(Cl)cc3)cc2)n1-c1ccc(Br)cc1
Reply | 83.1

Ask | Look at this compound and give its reported Activity. CC(=O)c1c(C)nc(SCC(=O)Nc2ccc(OCc3ccc(F)cc3)cc2)n1-c1ccc(Cl)cc1
Reply | 91

Ask | Look at this compound and give its reported Activity. CC(=O)c1c(C)nc(SCC(=O)Nc2ccc(OC(=O)c3ccco3)cc2)n1-c1ccc(F)cc1
Reply | 82.1

Ask | Look at this compound and give its reported Activity. COc1ccc(COc2ccc(NC(=O)CSc3nc(C)c(C(C)=O)n3-c3ccc(Br)cc3)cc2)cc1
Reply | 73.2

Ask | Look at this compound and give its reported Activity. CC(=O)c1c(C)nc(SCC(=O)Nc2ccc(OCc3ccccc3)cc2)n1-c1ccccc1
Reply | 84.3

Ask | Look at this compound and give its reported Activity. COc1ccc(-n2c(SCC(=O)Nc3ccc(OCc4ccc(F)cc4)cc3)nc(C)c2C(C)=O)cc1
Reply | 84.3
